Catalogue of relative viability readings, one per entry.
Test system: NCI-H2087
Test: relative viability (nuclei count vs DMSO), 5 days (fraction); higher = more cells survive
Settings: first compound 0.08 µM
Answer with a bare number; do not write a unit.

Worked cases, answers included:
compound	target-or-test-system	quantitative-result
CCCCCCCCCCCC1=C(O)C(=O)C=C(O)C1=O [Embelin] + Cc1nc(Nc2ncc(C(=O)Nc3c(C)cccc3Cl)s2)cc(N2CCN(CCO)CC2)n1 [Dasatinib] (partner 0.075 µM)	NCI-H2087	0.877
CCCCCCCCCCCC1=C(O)C(=O)C=C(O)C1=O [Embelin] + CC(=O)c1c(C)c2cnc(Nc3ccc(N4CCNCC4)cn3)nc2n(C2CCCC2)c1=O [Palbociclib] (partner 0.5 µM)	NCI-H2087	0.236
CCCCCCCCCCCC1=C(O)C(=O)C=C(O)C1=O [Embelin] + Cc1nc(NC(=O)N2CCC[C@H]2C(N)=O)sc1-c1ccnc(C(C)(C)C(F)(F)F)c1 [Alpelisib] (partner 2 µM)	NCI-H2087	0.988
CCCCCCCCCCCC1=C(O)C(=O)C=C(O)C1=O [Embelin] + N=C(N)NC(=N)NCCc1ccccc1 [Phenformin] (partner 250 µM)	NCI-H2087	0.486
CCCCCCCCCCCC1=C(O)C(=O)C=C(O)C1=O [Embelin] + Nc1nc2[nH]cc(CCc3ccc(C(=O)N[C@@H](CCC(=O)O)C(=O)O)cc3)c2c(=O)[nH]1 [Pemetrexed] (partner 0.2 µM)	NCI-H2087	0.745
CCCCCCCCCCCC1=C(O)C(=O)C=C(O)C1=O [Embelin] + CCNC(=O)c1noc(-c2cc(C(C)C)c(O)cc2O)c1-c1ccc(CN2CCOCC2)cc1 [Luminespib] (partner 0.01 µM)	NCI-H2087	0.162

// next entry
Prompt line: Item CCCCCCCCCCCC1=C(O)C(=O)C=C(O)C1=O [Embelin] + C[C@@H](Oc1cc(-c2cnn(C3CCNCC3)c2)cnc1N)c1c(Cl)ccc(F)c1Cl [Crizotinib] (partner 1 µM) : provide relative viability
Response line: 0.886
